- tested.target: bile salt export pump (BSEP) (Homo sapiens, UniProt O95342)
- Sequence (O95342 whole entry): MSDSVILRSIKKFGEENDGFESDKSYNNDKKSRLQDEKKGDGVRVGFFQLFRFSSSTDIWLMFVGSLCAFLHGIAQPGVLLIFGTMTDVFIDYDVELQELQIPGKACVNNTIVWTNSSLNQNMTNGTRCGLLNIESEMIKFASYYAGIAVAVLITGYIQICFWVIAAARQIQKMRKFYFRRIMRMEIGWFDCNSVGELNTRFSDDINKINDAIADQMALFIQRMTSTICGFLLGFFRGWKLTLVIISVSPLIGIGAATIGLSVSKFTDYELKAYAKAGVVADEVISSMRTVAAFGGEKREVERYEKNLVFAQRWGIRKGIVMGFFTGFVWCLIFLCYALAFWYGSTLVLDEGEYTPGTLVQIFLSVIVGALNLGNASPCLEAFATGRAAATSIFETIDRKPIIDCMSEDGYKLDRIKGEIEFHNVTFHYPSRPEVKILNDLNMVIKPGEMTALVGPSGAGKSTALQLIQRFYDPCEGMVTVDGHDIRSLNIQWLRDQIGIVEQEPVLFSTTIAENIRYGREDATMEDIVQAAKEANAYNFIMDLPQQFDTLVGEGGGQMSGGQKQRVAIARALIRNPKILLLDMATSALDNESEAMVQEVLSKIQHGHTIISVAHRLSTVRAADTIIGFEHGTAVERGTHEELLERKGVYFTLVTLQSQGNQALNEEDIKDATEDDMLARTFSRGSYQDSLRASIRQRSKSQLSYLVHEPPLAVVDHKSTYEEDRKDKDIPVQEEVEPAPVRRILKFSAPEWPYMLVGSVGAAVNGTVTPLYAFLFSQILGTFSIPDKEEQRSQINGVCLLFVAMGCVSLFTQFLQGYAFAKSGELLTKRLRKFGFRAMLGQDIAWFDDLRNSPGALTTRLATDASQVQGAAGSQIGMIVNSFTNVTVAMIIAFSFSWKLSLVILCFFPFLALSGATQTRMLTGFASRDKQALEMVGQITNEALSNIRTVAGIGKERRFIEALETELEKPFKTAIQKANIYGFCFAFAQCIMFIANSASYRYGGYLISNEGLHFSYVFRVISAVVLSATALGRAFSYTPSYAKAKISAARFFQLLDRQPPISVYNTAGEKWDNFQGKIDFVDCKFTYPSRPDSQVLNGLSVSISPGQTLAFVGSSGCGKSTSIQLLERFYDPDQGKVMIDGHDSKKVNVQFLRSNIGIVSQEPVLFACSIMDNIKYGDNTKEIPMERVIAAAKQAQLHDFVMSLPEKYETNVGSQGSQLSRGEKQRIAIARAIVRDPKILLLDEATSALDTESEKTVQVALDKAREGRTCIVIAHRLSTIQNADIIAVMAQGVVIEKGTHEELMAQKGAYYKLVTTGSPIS
parameter: Ki (µM)
Numbers only, in µM.

{"compound": "N[C@@H]1c2cccnc2[C@H](OC(=O)N2CCC(n3c(=O)[nH]c4ncccc43)CC2)CC[C@H]1c1cccc(F)c1F [Rimegepant, rimegepant]", "value.observed": 27.2}
{"compound": "C[C@@H]1[C@H](c2c(F)ccc(F)c2F)C[C@H](NC(=O)c2cnc3c(c2)C[C@@]2(C3)C(=O)Nc3ncccc32)C(=O)N1CC(F)(F)F [Atogepant, atogepant]", "value.observed": 144}

IN: Entry O=C(N[C@@H]1CC[C@@H](c2cccc(F)c2F)CN(CC(F)(F)F)C1=O)N1CCC(n2c(=O)[nH]c3ncccc32)CC1 [Telcagepant, telcagepant] needs its Ki filled in; supply it.
OUT: 19

###

- tested.target: UniProtKB O95342
- procedure.summary: BSEP membrane vesicle taurocholate transport inhibition
- Assay type: biochemical

{"compound": "C[C@@H]1[C@H](c2ccccc2)C[C@H](NC(=O)c2cnc3c(c2)C[C@@]2(C3)C(=O)Nc3ncccc32)C(=O)N1CC(F)(F)F [Ubrogepant, ubrogepant]", "tested.target": "UniProtKB O95342", "mode of inhibition for BSEP": "mixed"}
{"compound": "O=C(N[C@@H]1CC[C@@H](c2cccc(F)c2F)CN(CC(F)(F)F)C1=O)N1CCC(n2c(=O)[nH]c3ncccc32)CC1 [Telcagepant, telcagepant]", "tested.target": "UniProtKB O95342", "mode of inhibition for BSEP": "mixed"}
{"compound": "Cc1cc(C[C@@H](NC(=O)N2CCC(c3cc4ccccc4[nH]c3=O)CC2)C(=O)N2CCN(C3CCN(C)CC3)CC2)cc2cn[nH]c12 [Zavegepant, zavegepant]", "tested.target": "UniProtKB O95342", "mode of inhibition for BSEP": "mixed"}

###

- Test system: HepG2 cells
- procedure.summary: ROS formation by dihydroethidium
- Type: cell-based
- particulars: DILIsym input parameter, oxidative stress
I'd be grateful if you could share measured RNS/ROS production rate constant 1 for these entries.
Answers are plain numbers, in M⁻¹ s⁻¹.

{"smiles.structure": "C[C@@H]1[C@H](c2ccccc2)C[C@H](NC(=O)c2cnc3c(c2)C[C@@]2(C3)C(=O)Nc3ncccc32)C(=O)N1CC(F)(F)F", "tested.target": "HepG2 cells", "RNS/ROS production rate constant 1 (M⁻¹ s⁻¹)": 0.0458}

Give RNS/ROS production rate constant 1 for each listed item.
1. C[C@@H]1[C@H](c2c(F)ccc(F)c2F)C[C@H](NC(=O)c2cnc3c(c2)C[C@@]2(C3)C(=O)Nc3ncccc32)C(=O)N1CC(F)(F)F
2. N[C@@H]1c2cccnc2[C@H](OC(=O)N2CCC(n3c(=O)[nH]c4ncccc43)CC2)CC[C@H]1c1cccc(F)c1F

OUT:
1: 0.0947; 2: 0.0972

###

Consider the following compounds; for each one, report its Max inhibitory effect for ETC inhibition 3.
- System: HepG2 cells
- procedure.summary: Seahorse oxygen consumption rate
- Format: cell-based
- particulars: DILIsym input parameter, mitochondrial dysfunction
One number for each entry, in Dimensionless.

{"compound": "N[C@@H]1c2cccnc2[C@H](OC(=O)N2CCC(n3c(=O)[nH]c4ncccc43)CC2)CC[C@H]1c1cccc(F)c1F [Rimegepant, rimegepant]", "value.units": "Dimensionless", "value.observed": 0.45}

Count: 3. Required value per item: Max inhibitory effect for ETC inhibition 3.
1. Cc1cc(C[C@@H](NC(=O)N2CCC(c3cc4ccccc4[nH]c3=O)CC2)C(=O)N2CCN(C3CCN(C)CC3)CC2)cc2cn[nH]c12 [Zavegepant, zavegepant]
2. C[C@@H]1[C@H](c2c(F)ccc(F)c2F)C[C@H](NC(=O)c2cnc3c(c2)C[C@@]2(C3)C(=O)Nc3ncccc32)C(=O)N1CC(F)(F)F [Atogepant, atogepant]
3. C[C@@H]1[C@H](c2ccccc2)C[C@H](NC(=O)c2cnc3c(c2)C[C@@]2(C3)C(=O)Nc3ncccc32)C(=O)N1CC(F)(F)F [Ubrogepant, ubrogepant]

OUT:
1.5
0.2
0.4

###

- tested.target: bile salt export pump (BSEP) (Homo sapiens)
- procedure.summary: BSEP membrane vesicle taurocholate transport inhibition
- Format: biochemical
parameter: BSEP inhibition alpha value (Dimensionless)
Answers are plain numbers, in Dimensionless.

{"molecule": "C[C@@H]1[C@H](c2c(F)ccc(F)c2F)C[C@H](NC(=O)c2cnc3c(c2)C[C@@]2(C3)C(=O)Nc3ncccc32)C(=O)N1CC(F)(F)F [Atogepant, atogepant]", "value.observed": 0.64}

Turning now to a further record.
IN: Supply recorded BSEP inhibition alpha value for Cc1cc(C[C@@H](NC(=O)N2CCC(c3cc4ccccc4[nH]c3=O)CC2)C(=O)N2CCN(C3CCN(C)CC3)CC2)cc2cn[nH]c12 [Zavegepant, zavegepant] here.
OUT: 1.368
